// provenance: ChEMBL document CHEMBL1145498

ASSAYED_SYSTEM: Serine/threonine-protein kinase RIO2 (Homo sapiens)
VALUE_KIND: ΔTm (°C)
Please respond with the number in °C and leave the unit unwritten.

[
  {
    "COMPOUND": "CCCNC(=O)Nc1ccc(Oc2ncnc3cc(OC)c(OC)cc23)cc1Cl",
    "RECORDED_VALUE": 0.2
  },
  {
    "COMPOUND": "C[S+]([O-])c1ccc(CSc2nc(-c3ccc(F)cc3)c(-c3ccncc3)[nH]2)cc1 (stereo not given)",
    "RECORDED_VALUE": 0.2
  },
  {
    "COMPOUND": "CC(=O)O/N=C1/C(=C2/C(=O)Nc3cc(Br)ccc32)Nc2ccccc21",
    "RECORDED_VALUE": 1.7
  },
  {
    "COMPOUND": "COc1cc(OC)c(/C=C2\\C(=O)Nc3ccccc32)c(OC)c1",
    "RECORDED_VALUE": -0.2
  },
  {
    "COMPOUND": "CC(C)(C)n1nc(-c2cccc3ccccc23)c2c(N)ncnc21",
    "RECORDED_VALUE": 0.4
  },
  {
    "COMPOUND": "O=C(Nc1cccc(Nc2cc(Nc3cccc(C(F)(F)F)c3)ncn2)c1)C1CC1",
    "RECORDED_VALUE": 3.4
  }
]

Task: Quick one: ΔTm for O=c1ccc2ccc(O)c(O)c2o1 ?
Output: 0.7

Task: What about N=C(N)NCCNS(=O)(=O)c1cccc2cnccc12 ?
Output: 1.5

Task: Request: CC(C)n1cnc2c(NCc3ccccc3)nc(NCCCO)nc21
Output: 0.4

Task: Now give it for NCCNS(=O)(=O)c1cccc2c(Cl)cccc12 too.
Output: 0.2
